B1: Cold shock protein CspB, residues 1 to 66; numbered along this chain, P41016 (parent)
chain: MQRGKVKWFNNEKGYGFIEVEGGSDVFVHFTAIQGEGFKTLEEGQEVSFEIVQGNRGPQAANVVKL

# Variants of: B1
# Protocol description: abundance fitness (aPCA) (normalised: wild type 0, dead -1); higher = more abundant; growth selection in yeast, the domain comes from the species named
# Conditions used: Bacillus caldolyticus
Quantity kind: abundance fitness
Number only, no unit.

Sequence change	abundance fitness
D25P	-0.093
Y15P	-0.885
G14T	-0.383
A32Q	0.023
A32K	-0.044
K39E	-0.114
G22C	0.02
E19S	0.016
I18D	-1.08
F27C	-0.243

Now let's try a different one.
Query block: // fetch abundance fitness given entry "E21Y"
Result block: -0.022
